B1: KLHL14 (parent)
chain: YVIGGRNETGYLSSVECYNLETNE

# Variants of: B1
# ASSAY REMARKS: protein stability index of a GFP-peptide fusion (GPS, HEK-293T) (PSI 1-6); higher = more stable;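 note: lentivirally expressed fusions sorted by FACS into six bins by GFP to DsRed ratio, PSI derived from sequencing read proportions per bin multiplied by bin number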
# MEASUREMENT CONTEXT: c terminus: a fixed tail appended
met means recorded protein stability index is 2 or above; not met means it is below 2.

Field: example entries. Status: answers known.
{"VARIANT": "E21N", "GROUP": "not met"}
{"VARIANT": "N23P", "GROUP": "not met"}
{"VARIANT": "E8Y", "GROUP": "not met"}

Dear colleague, could you confirm whether V2E has protein stability index at or above 2?
met

Dear colleague, could you confirm whether L20V has protein stability index at or above 2?
not met

Dear colleague, could you confirm whether G5S has protein stability index at or above 2?
met

Dear colleague, could you confirm whether E8Q has protein stability index at or above 2?
not met

Dear colleague, could you confirm whether E8D has protein stability index at or above 2?
not met
